System: symmetric dimethylation of arginine (SDMA) of PRMT5 substrates in MCF-7 cells
ASSAY_METHOD_TEXT: PRMT5 Cell Target Engagement (TE) Assay
Type: cell-based
CONDITION_CONTEXT: Homo sapiens, MCF7, 72 h; MCF-7 cells treated for 3 days; nuclear SDMA by high content imaging; top concentration 10000 nM
pEC50: −log10 of the molar value. Structures can show the parent of a compound that is named as a salt.

{"columns": ["COMPOUND", "pEC50"],
 "data": [
  ["Cc1cn([C@@H]2O[C@@H]3[C@H](Cc4ccc5cc(Cl)c(N)nc5c4)CC[C@]3(O)[C@H]2O)c2ncnc(N)c12 [Example 66]", 9.05],
  ["C[C@]1(CCc2ccc3cc(Br)c(N)nc3c2)O[C@@H](n2ccc3c(N)ncnc32)[C@H](O)[C@]1(C)O [Example 4]", 6.73],
  ["Cc1nc(C)c2ccn([C@@H]3O[C@@H]4[C@H](Cc5ccc6cc(Cl)c(N)nc6c5)CC[C@]4(O)[C@H]3O)c2n1 [Example 91]", 8.20],
  ["Nc1nc2nc(C[C@@H]3CC[C@@]4(O)[C@@H]3O[C@@H](n3ccc5c(N)ncnc53)[C@@H]4O)ccc2cc1Cl [Example 28, trihydrochloride]", 7.89],
  ["C[C@]1(COc2ccc3cc(Br)c(N)nc3c2)C[C@@H](n2ccc3c(N)ncnc32)[C@H](O)[C@]1(C)O [Example 111]", 5.63],
  ["Nc1nc2cc(C[C@@H]3CC[C@@]4(O)[C@@H]3C[C@@H](n3cc(F)c5c(N)ncnc53)[C@@H]4O)ccc2cc1Cl [Example 34]", 9.52],
  ["Nc1nc2c(F)c(C[C@@H]3CC[C@@]4(O)[C@@H]3O[C@@H](n3ccc5c(N)ncnc53)[C@@H]4O)ccc2cc1F [Example 20]", 7.73],
  ["Nc1nc2cc(C[C@@H]3CC[C@@]4(O)[C@@H]3O[C@@H](n3cc(C(F)F)c5c(N)ncnc53)[C@@H]4O)ccc2cc1Br [Example 43]", 9.00],
  ["C[C@@]1(O)[C@@H](COc2ccc3ccc(N)nc3c2)C[C@@H](n2ccc3cncnc32)[C@@H]1O [Example 105]", 9.05],
  ["Cc1cn([C@@H]2C[C@@H]3[C@H](Cc4ccc5cc(Cl)c(N)nc5c4)CC[C@]3(O)[C@H]2O)c2ncnc(N)c12 [Example 39]", 9.52],
  ["Nc1nc2cc(C[C@@H]3CC[C@@]4(O)[C@@H]3O[C@@H](n3ccc5c(N)ncnc53)[C@@H]4O)ccc2cc1C(F)F [Example 137]", 9.10],
  ["Cc1ncnc2c1ccn2[C@@H]1C[C@@H]2[C@H](Cc3ccc4cc(Br)c(N)nc4c3)CC[C@]2(O)[C@H]1O [Example 19]", 8.96],
  ["C[C@]1(O)[C@@H](O)[C@H](n2ccc3c(N)ncnc32)C[C@]1(O)CCc1ccc2cc(Br)c(N)nc2c1 [Example 118]", 6.99],
  ["Nc1nc2cc(C[C@H]3[C@H]4O[C@@H](n5cc(F)c6c(N)ncnc65)[C@H](O)[C@@]4(O)C[C@@H]3F)ccc2cc1F [Example 55]", 8.41],
  ["Nc1nc2cc(C[C@H]3[C@H]4O[C@@H](n5ccc6c(N)ncnc65)[C@H](O)[C@@]4(O)C[C@@H]3F)ccc2cc1F [Example 54]", 8.09],
  ["CNc1ncnc2c1ccn2[C@@H]1O[C@@H]2[C@H](Cc3ccc4cc(Br)c(N)nc4c3)CC[C@]2(O)[C@H]1O [Example 92]", 8.00],
  ["Cc1ncnc2c1ccn2[C@@H]1C[C@](C)(CCc2ccc3cc4c(nc3c2)NCC4)[C@@H](O)[C@H]1O [Example 110]", 7.40],
  ["Cc1nc(N)nc2c1ccn2[C@@H]1O[C@@H]2[C@H](Cc3ccc4cc(Br)c(N)nc4c3)CC[C@]2(O)[C@H]1O [Example 127]", 9.10],
  ["Nc1nc2cc(C[C@@H]3CC[C@@]4(O)[C@@H]3O[C@@H](n3ccc5c(N)ncnc53)[C@@H]4O)ccc2cc1F [Example 124]", 8.64],
  ["Cc1nc(C)c2ccn([C@@H]3O[C@@H]4[C@H](Cc5ccc6cc(Br)c(N)nc6c5)CC[C@]4(O)[C@H]3O)c2n1 [Example 81]", 8.41],
  ["Nc1ncnc2c1ccn2[C@@H]1O[C@@H]2[C@@H](Oc3ccc4cc5c(nc4c3)NCC5)CC[C@]2(O)[C@H]1O [Example 75]", 8.30],
  ["C[C@]1(COc2ccc3ccc(N)nc3c2)C[C@@H](n2ccc3c(N)ncnc32)[C@H](O)[C@@H]1O [Example 101]", 9.00],
  ["Cc1ncnc2c1ccn2[C@@H]1O[C@@H]2[C@H](Cc3ccc4cc(Cl)c(N)nc4c3F)CC[C@]2(O)[C@H]1O [Example 22]", 7.52],
  ["Nc1nc2cc(C[C@@H]3CC[C@@]4(O)[C@@H]3O[C@@H](n3ccc5c(N)ncnc53)[C@@H]4O)cc(F)c2cc1F [Example 29]", 8.77],
  ["CNc1ncnc2c1ccn2[C@@H]1O[C@@H]2[C@@H](Oc3ccc4cc(Br)c(N)nc4c3)CC[C@]2(O)[C@H]1O [Example 94]", 8.28],
  ["Cc1cn([C@@H]2C[C@@H]3[C@H](Cc4ccc5cc(Br)c(N)nc5c4)CC[C@]3(O)[C@H]2O)c2ncnc(N)c12 [Example 40]", 9.15]
]}
